// read-out pIC50, gathered for UniProtKB Q9UQB9 from published studies
Sequence (Q9UQB9 whole entry): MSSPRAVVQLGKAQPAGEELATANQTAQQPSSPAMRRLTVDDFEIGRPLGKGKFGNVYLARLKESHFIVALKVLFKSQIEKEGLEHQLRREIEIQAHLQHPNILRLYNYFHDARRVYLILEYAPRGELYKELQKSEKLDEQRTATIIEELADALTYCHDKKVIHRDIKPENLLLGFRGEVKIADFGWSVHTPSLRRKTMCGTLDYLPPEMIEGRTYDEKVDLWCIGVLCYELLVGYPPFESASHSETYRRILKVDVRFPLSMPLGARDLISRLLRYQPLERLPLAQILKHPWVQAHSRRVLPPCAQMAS
pIC50: −log10 of the molar value.
Recorded Endpoint: pIC50

>>> observed_measurement("Oc1cccc(Nc2ccnc3[nH]c4ccccc4c23)c1")
6.59
>>> observed_measurement("Clc1cnc2c(Nc3ccc(N4CCOCC4)cc3)nc(-c3cccnc3)cn12")
5.71
>>> observed_measurement("CN1C(=O)c2cc3ccccc3cc2N(C)c2nc(Nc3cnn(C4CCNCC4)c3)ncc21")
6.92
>>> observed_measurement("Cc1nc(N)sc1-c1ccnc(Nc2ccc(N3CCOCC3)cc2)n1")
7.19
>>> observed_measurement("O=C1Nc2c(Br)cccc2/C1=C1/Nc2ccccc2/C1=N\\O")
7.00
>>> observed_measurement("O=C(CC(=O)Nc1ccc2c(c1)NC(=O)/C2=C\\c1ccc[nH]1)Nc1ccc(F)cc1")
7.17
>>> observed_measurement("CCNC(=O)C#Cc1ccc2c(c1)NC(=O)/C2=C(\\Nc1ccc(CN(C)C)cc1)c1ccccc1")
7.82
>>> observed_measurement("Cc1csc(-c2nnc(Nc3ccc(Oc4ncccc4-c4ccnc(N)n4)cc3)c3ccccc23)c1")
9.00
